tested.target: T1, recombinant human AF9 YEATS domain (residues 1–138) (human, UniProt P42568 1-138)
T1 construct: AF9 (MLLT3), human, YEATS domain, amino acids 1-138, in pET28b(+); Plasmid was a gift from Prof; No step that removes the tag is described; the final SEC product is called 6xHis AF9 YEATS, so the tag was probably still on in ITC; also called 6xHis-AF9 YEATS; source: E. coli Rosetta 2(DE3)pLysS, purified (HisTrap Ni-NTA, Superdex 75 SEC)
T1 sequence (looked up): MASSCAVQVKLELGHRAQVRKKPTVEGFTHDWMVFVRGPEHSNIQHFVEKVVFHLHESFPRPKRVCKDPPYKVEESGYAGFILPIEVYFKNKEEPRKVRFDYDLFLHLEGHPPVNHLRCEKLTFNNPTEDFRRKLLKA
test.details: ITC; H3 peptides (1.1–2.7 mM) titrated into AF9 YEATS (94–205 μM), 19 injections; 50 mM NaH2PO4, 500 mM NaCl, 2 mM EDTA, 2 mM β-ME; One Set of Sites model; triplicates
condition.details: both partners purified
Starred links: 1 amine or outer side, 2 acyl side, 3 side chain; linkers in the order of their positions; H or OH if unused. Non-standard residues stand in square brackets, D forms with d. No end group written: not given here. Kmea = methacryllysine, C=C(C)C(=O)NCCCC[C@H](N[*:1])C(=O)[*:2]; Kcr = crotonyllysine, C/C=C/C(=O)NCCCC[C@H](N[*:1])C(=O)[*:2]
outcome.measure: pKd
Numbers only, as −log10 of the molar value.

Past entries and their recorded results:
binder	pKd
STGGKAPRKQLATKAA (crotonyllysine (Kcr) at K18, histone H3, residues 10-25; the stretch is the same in H3.1, H3.2 and H3.3; Made on Rink amide resin, so the C-terminus is probably an amide; last residue coupled as N-alpha-Boc amino acid, so the N-terminus is probably free; also called H3K18Kcr; source: synthetic peptide (Fmoc-SPPS on Rink amide resin, RP-HPLC purified)) [histone H3K18cr peptide (residues 10–25)]	4.68
TKQTAR[Kcr]STGGKA-NH2 (histone H3, residues 3-15; the stretch is the same in H3.1, H3.2 and H3.3; Made on Rink amide resin, so the C-terminus is probably an amide; last residue coupled as N-alpha-Boc amino acid, so the N-terminus is probably free; source: synthetic peptide (Fmoc-SPPS on Rink amide resin, RP-HPLC purified)) [histone H3K9cr peptide (residues 3–15)]	4.96
TKQTAR[Kmea]STGGKA-NH2 (histone H3, residues 3-15; the stretch is the same in H3.1, H3.2 and H3.3; Made on Rink amide resin, so the C-terminus is probably an amide; last residue coupled as N-alpha-Boc amino acid, so the N-terminus is probably free; source: synthetic peptide (Fmoc-SPPS on Rink amide resin, RP-HPLC purified)) [histone H3K9mea peptide (residues 3–15)]	4.23

We now examine a further binder.
input: Query (binder): STGGKAPRKQLATKAA (methacryllysine (Kmea) at K18, histone H3, residues 10-25; the stretch is the same in H3.1, H3.2 and H3.3; Made on Rink amide resin, so the C-terminus is probably an amide; last residue coupled as N-alpha-Boc amino acid, so the N-terminus is probably free; source: synthetic peptide (Fmoc-SPPS on Rink amide resin, RP-HPLC purified)) [histone H3K18mea peptide (residues 10–25)] ; field requested: pKd
output: 3.94
